# ASSAYED_SYSTEM: hNav1.7 (Homo sapiens (Human))
# Sequence (Q15858 other isoform, or with tags, fused parts or gaps): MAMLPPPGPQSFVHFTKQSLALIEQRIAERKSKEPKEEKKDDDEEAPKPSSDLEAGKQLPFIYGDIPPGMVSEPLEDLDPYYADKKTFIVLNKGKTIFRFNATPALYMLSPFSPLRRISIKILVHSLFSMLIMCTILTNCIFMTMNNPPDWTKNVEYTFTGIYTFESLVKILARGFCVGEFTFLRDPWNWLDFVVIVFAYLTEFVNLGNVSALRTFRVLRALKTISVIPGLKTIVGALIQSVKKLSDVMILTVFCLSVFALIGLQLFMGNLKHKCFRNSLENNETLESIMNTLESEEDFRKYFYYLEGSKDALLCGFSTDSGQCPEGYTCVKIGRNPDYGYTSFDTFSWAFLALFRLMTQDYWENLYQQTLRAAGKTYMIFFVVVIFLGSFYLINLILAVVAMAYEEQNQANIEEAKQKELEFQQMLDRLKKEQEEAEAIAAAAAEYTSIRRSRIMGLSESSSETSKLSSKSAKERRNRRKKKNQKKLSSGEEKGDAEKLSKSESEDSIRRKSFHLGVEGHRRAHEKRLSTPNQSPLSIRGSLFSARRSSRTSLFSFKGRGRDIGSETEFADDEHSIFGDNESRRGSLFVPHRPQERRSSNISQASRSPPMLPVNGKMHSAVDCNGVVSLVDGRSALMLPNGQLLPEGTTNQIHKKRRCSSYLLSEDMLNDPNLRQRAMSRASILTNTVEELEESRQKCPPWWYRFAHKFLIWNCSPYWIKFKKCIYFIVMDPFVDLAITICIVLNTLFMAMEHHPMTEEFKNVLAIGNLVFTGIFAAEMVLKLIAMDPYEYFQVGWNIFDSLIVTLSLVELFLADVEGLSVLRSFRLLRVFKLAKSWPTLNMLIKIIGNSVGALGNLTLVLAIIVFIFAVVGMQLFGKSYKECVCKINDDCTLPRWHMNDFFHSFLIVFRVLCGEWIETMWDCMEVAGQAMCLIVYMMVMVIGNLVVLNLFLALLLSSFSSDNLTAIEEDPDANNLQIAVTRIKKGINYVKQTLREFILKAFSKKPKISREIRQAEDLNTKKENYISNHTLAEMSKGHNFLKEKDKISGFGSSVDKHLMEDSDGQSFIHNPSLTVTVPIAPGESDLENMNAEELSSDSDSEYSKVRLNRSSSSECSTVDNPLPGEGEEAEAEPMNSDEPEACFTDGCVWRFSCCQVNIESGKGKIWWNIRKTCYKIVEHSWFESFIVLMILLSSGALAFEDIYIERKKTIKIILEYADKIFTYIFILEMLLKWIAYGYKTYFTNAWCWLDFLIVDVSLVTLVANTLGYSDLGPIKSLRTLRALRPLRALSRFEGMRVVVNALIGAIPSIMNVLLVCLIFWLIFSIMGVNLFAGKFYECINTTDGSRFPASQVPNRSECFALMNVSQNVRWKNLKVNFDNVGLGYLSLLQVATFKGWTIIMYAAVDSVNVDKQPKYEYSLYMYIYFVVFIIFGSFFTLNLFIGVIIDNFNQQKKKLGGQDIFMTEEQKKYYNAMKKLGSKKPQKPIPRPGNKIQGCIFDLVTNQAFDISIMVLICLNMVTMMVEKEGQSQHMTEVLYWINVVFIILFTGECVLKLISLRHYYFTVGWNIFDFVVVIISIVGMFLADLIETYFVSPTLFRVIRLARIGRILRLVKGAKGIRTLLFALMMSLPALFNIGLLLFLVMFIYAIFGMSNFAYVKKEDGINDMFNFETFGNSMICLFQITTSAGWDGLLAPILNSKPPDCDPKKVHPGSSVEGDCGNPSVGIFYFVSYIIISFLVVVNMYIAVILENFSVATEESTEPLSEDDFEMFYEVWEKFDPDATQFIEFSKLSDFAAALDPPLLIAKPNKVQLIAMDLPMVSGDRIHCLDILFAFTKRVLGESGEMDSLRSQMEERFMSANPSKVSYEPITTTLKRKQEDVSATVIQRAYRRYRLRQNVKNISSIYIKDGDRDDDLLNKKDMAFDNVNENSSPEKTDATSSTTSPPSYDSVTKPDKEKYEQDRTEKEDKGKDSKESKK
# Sequence (Q07699 19-218 partner): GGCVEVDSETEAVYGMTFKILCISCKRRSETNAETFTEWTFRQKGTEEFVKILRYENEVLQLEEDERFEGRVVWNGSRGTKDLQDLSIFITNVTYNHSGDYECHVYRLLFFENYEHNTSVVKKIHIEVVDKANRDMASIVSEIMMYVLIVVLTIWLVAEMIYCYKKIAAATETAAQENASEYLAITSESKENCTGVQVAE
# EXPERIMENTAL_PROTOCOL: Tritiated sulfonamide competitive binding to membranes from cells expressing hNav1.7 and the β1 subunit;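 further: Filter-bound radioactivity counted by liquid scintillation, nonspecific binding defined with excess unlabelled ligand, IC50 fitted to percent inhibition of specific binding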
# CONDITION_PARAMETERS: read-out: Ligand Binding Assay; 100 pM [3H]compound, membranes with hNav1.7 and β1 subunit, 18 h, room temperature
MEASURED_ENDPOINT: IC50 (nM)

For the compound shown here, C[C@@H](c1ccc(F)cc1)N1CCC[C@@H](Oc2cc(F)c(C(=O)NS(C)(=O)=O)cc2C2CC2)C1 (single isomer, unassigned) , give the reported IC50.
19.1

A = O=C(NS(=O)(=O)C1CC1)c1cc(C2CC2)c(OCC2CCN(S(=O)(=O)C3CCOCC3)CC2)cc1F
B = CS(=O)(=O)NC(=O)c1cc(C2CC2)c(O[C@@H]2CCCN(Cc3ccc(F)cc3Cl)C2)cc1F
C = CS(=O)(=O)NC(=O)c1cc(C2CC2)c(OCC2CCN(Cc3ccc(F)c(F)c3)CC2)cc1F
Order the items by recorded IC50; the first position goes to the largest value. Thanks in advance for listing the labels in the requested order.
A, C, B
